Below, each entry is listed with its recorded pIC50.
Tested on: SGC-7901
Assay: Antiproliferative activity against human SGC7901 cells after 72 hrs by MTT assay
Conditions: SGC-7901, 72 h
// pIC50: -log10(molar conc.)

Query string: pIC50 for COc1cc(/C=C2\CC/C(=C\c3ccc(OC(=O)C(C)C)c(OC)c3)C2=O)ccc1OC(=O)C(C)C ?
Result string: 5.24

---

System: SGC-7901
Test: Antiproliferative activity against human SGC7901 cells after 72 hrs by MTT assay
Conditions: SGC-7901, 72 h
Quick reference for pIC50 among some compounds
When answering, recall that pIC50 equals minus log10 of the concentration in mol/L, and write that number alone.

INSERT INTO assay_data (cpd_smiles, target, recorded_metric, value_measured) VALUES
  ('COc1cc(/C=C2\CC/C(=C\c3c[nH]c4ccc(Br)cc34)C2=O)ccc1O', 'SGC-7901', 'pIC50', 5.02),
  ('COc1cc(/C=C/C(=O)/C=C/c2ccc(N3CCCC3)cc2)ccc1O', 'SGC-7901', 'pIC50', 5.09),
  ('CCC(=O)Oc1ccc(/C=C2\CC/C(=C\c3ccc(OC(=O)CC)c(OC)c3)C2=O)cc1OC', 'SGC-7901', 'pIC50', 5.33),
  ('CCN(CC)c1ccc(/C=C/C(=O)/C=C/c2ccc(O)c(OC)c2)cc1', 'SGC-7901', 'pIC50', 5.09),
  ('COc1cc(CCc2cc(NC(=O)c3ccc(N4C[C@@H](C)N[C@@H](C)C4)cc3)n[nH]2)cc(OC)c1', 'SGC-7901', 'pIC50', 5.55);

Now look at this entry.
Query string: // query pIC50 value for entry COc1cc(/C=C2\CCC/C(=C\c3ccc(N4CCCCC4)cc3)C2=O)ccc1OC(=O)C(C)C
Result string: 4.73
